# target-or-test-system: human IBAT (Homo sapiens, UniProt Q12908)
# Construct: expressed in transfected cells; host or cells: Baby hamster kidney (BHK) cells, clone H14
# Sequence (Q12908 whole entry): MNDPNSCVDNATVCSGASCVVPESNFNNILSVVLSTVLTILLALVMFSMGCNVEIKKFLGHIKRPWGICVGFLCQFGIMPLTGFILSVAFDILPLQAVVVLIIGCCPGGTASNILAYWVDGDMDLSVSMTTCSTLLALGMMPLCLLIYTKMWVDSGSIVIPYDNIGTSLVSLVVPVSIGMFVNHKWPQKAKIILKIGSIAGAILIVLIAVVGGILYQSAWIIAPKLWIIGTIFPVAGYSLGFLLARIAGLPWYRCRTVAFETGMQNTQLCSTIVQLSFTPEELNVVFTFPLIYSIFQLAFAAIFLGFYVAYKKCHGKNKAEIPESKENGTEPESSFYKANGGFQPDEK
# assay-name: In vitro assay of compounds that inhibit IBAT-mediated uptake of [14C]-taurocholate (TC) in H14 cells
# Type: cell-based
# cond: [14C]-taurocholate uptake, read-out: Human TC IC50
readout-label: IC50 (µM)
Give bare numbers, in µM.

Could you report IC50 for every entry in the following list?
1. CCCC[C@]1(CC)CS(=O)(=O)c2cc(OCCOCCOCCOc3ccc4c(c3)S(=O)(=O)C[C@@](CC)(CCCC)[C@H](O)[C@@H]4c3ccccc3)ccc2[C@@H](c2ccccc2)[C@H]1O
2. CCCCC1(CCCC)CS(=O)(=O)c2ccc(NCc3ccccc3)cc2[C@@H](c2ccccc2)[C@H]1O
3. CCCCC1(CCCC)CS(=O)(=O)c2ccc(N(C)C)cc2C(c2ccccc2)C1O (stereo not drawn)

[22, 1.9, 0.039]

---

Could you please report measured IC50 for the items listed next?
# target-or-test-system: human IBAT (Homo sapiens)
# Construct: expressed in transfected cells; host or cells: Baby hamster kidney (BHK) cells, clone H14
# assay-name: In vitro assay of compounds that inhibit IBAT-mediated uptake of [14C]-taurocholate (TC) in H14 cells
# Format: cell-based
# cond: [14C]-taurocholate uptake, read-out: Human TC IC50
One number for each entry, in µM.

CCCCC1(CCCC)CS(=O)(=O)c2ccc(NC(C)(C)C)cc2C(c2ccc(F)cc2)C1O (stereo not shown); 0.25
CCCCC1(CCCC)CS(=O)(=O)c2ccc(NC(=O)OCc3ccccc3)cc2[C@@H](c2ccccc2)[C@H]1O; 0.6
CCCCC1(CC)CS(=O)(=O)c2ccc(OC)cc2C(c2cccc(F)c2)C1O (stereo not shown); 0.4
CCCCC1(CC)CS(=O)(=O)c2ccc(OC)cc2C(c2ccccc2F)C1O (stereo not shown); 3

Could you report IC50 for every entry in the following list?
1. CCCCC1(CCCC)CS(=O)(=O)c2ccc(N(C)C)cc2C(c2ccc(OCCCCCCCCCCOc3ccccc3[N+](C)(C)CC)cc2)C1O (stereo not shown)
2. CCCCC1(CCCC)CS(=O)(=O)c2ccc(N(C)C)cc2C(c2ccc(OCCCCBr)c(F)c2)C1O (stereo not shown)
3. CCCCC1(CCCC)CS(=O)(=O)c2ccc(N(C)C)cc2C(c2ccc(OCCCCCCCCCCI)cc2)C1O (stereo not shown)
4. CCCCC1(CC)CS(=O)(=O)c2ccc(N(C)C)cc2C(c2ccc(OCCOCCOCCOc3ccc(C4c5cc(N(C)C)ccc5S(=O)(=O)CC(CC)(CCCC)C4O)cc3)cc2)C1O (stereo not shown)
5. CCCCC1(CCCC)CS(=O)(=O)c2ccc(N(C)C)cc2C(c2ccc(OCCOCC[S+](CC)CC)c(F)c2)C1O (stereo not shown)
6. CCCC[C@@]1(CC)CS(=O)(=O)c2cc(OCCOCCOCCOc3ccc4c(c3)S(=O)(=O)C[C@@](CC)(CCCC)[C@@H](O)[C@H]4c3ccccc3)ccc2[C@@H](c2ccccc2)[C@H]1O

1. 0.44
2. 0.024
3. 0.024
4. 0.28
5. 0.012
6. 2.4

Could you report IC50 for every entry in the following list?
1. CCCCC1(CCCC)CS(=O)(=O)c2ccc(N(C)C)cc2C(c2ccc(OCCOCCOCCOc3ccc(C4c5cc(N(C)C)ccc5S(=O)(=O)CC(CCCC)(CCCC)C4O)cc3)cc2)C1O (stereo not shown)
2. CCCCC1(CCCC)CS(=O)(=O)c2ccc(N(C)C)cc2C(c2cccc(NCCCS(=O)(=O)O)c2)C1O (stereo not shown)
3. CCCCC1(CCCC)CS(=O)(=O)c2ccc(N(C)C)cc2C(c2cccc(OCCOCCOCC[N+](CC)(CCCc3ccccc3)CCCc3ccccc3)c2)C1O (stereo not shown)

1: 0.019; 2: 0.014; 3: 0.052

Each recorded value in this set is attributed to patent US6943189B2.
